Counter-ions that a name gives are not always drawn.
Observed pIC50, system CB1-receptor (UniProt P20272).
Lab note — pIC50 values are minus log10 of concentrations in M.

O=C(NN1CCCCC1)C1=NN(c2ccc(Cl)cc2Cl)[C@@H](c2ccc(Cl)cc2)C1 [A-Hydrochloride] | 7.70

Next up:
Q: Form entry - test system: CB1-receptor (UniProt P20272); read-out: pIC50; compound: O=C(NN1CCCCC1)C1=NN(c2ccc(Cl)cc2Cl)[C@@H](c2ccc(Cl)cc2)C1
Ans: 7.79
